Test system: CAKI-1
Assay protocol: NCI tumour cell line growth inhibition, 48 h
The source made the active and inactive calls. Cut-off read from the data, not from the text of the source: active = GI50 up to about 1.1 µM and inactive = higher.

Compound	GI50
CC(C)(C)C(=O)c1c(O)c2ccccc2c2ccccc2c1=O	> 100 µM (inactive)
COc1c(C2=NC(C(C)C)CO2)ccc2ccccc12 (stereo not given)	61.5 µM (inactive)
Cc1nc(Nc2ccc(Cl)cc2Cl)sc1C(=O)Nc1ccccc1	49.8 µM (inactive)
O=C1c2cc(O)c(O)cc2O[C@H](c2ccc(O)c(O)c2)[C@H]1O	> 100 µM (inactive)
CC1=C(C(=O)Nc2ccc(Cl)c(Cl)c2)C(c2ccc([N+](=O)[O-])cc2)C(C(=O)Nc2ccc(Cl)c(Cl)c2)=C(C)N1	2.54 µM (inactive)
COC(=O)NNc1c([N+](=O)[O-])cnn(-c2ccccc2)c1=O	3.98 µM (inactive)
CN(CC(N)=O)C(=O)N(CCCl)N=O [SARCNU]	> 100 µM (inactive)
CCOC(=O)CNC(=O)C(C)NC(=O)C(NC(=O)CC(c1ncc[nH]1)c1ncc[nH]1)C(C)CC (stereo not given)	> 100 µM (inactive)
CC1CC(C(=O)OC2OC(COC3OC(CO)C(OC4OC(C)C(O)C(O)C4O)C(O)C3O)C(O)C(O)C2O)C2CCC3(C)C(=CCC4(C)C3CCC3C(C)(CO)C(O)C(O)CC34C)C2C1C (stereo not given)	> 100 µM (inactive)
O=C(N/N=C(COc1cccc(Cl)c1)\N=C\c1ccncc1)c1ccncc1	> 100 µM (inactive)

###

Tested on: SNB-19
Assay protocol: NCI tumour cell line growth inhibition, 48 h
Activity calls are given as the source filed them. No stated cut-off is given here; in the data, active = GI50 up to about 1.1 µM and inactive = higher.
The following compounds are shown together with reported GI50 values.
Recorded metric: GI50

> print(dat)
                                    compound               result
 1  Cc1ccc(C(=O)N/N=C2/C(=O)c3c4ccccc4cc4cccc2c34)cc1   27.6 µM (inactive)
 2              O=C(c1ccc2ccccc2c1O)N1CCCCC1  > 100 µM (inactive)
 3  CCC(C)[C@H]1C(=O)N=C(N)N1C(=O)OCc1ccccc1 (stereo partly specified)  > 100 µM (inactive)
 4  Cc1cc(S(=O)(=O)Nc2nc3cccnc3[nH]2)c(S)cc1Cl   77.8 µM (inactive)
 5       COc1cc(C=O)cc(/C=N/c2ccc(Br)cc2)c1O   12.7 µM (inactive)
 6  Nc1ccc(C2NC(=O)Cc3c2ccc2ccccc32)cc1 (stereo unspecified)  > 100 µM (inactive)
 7  O=S1(=O)N=C(SCc2c[nH]c3ccccc23)N(c2ccccc2)c2ccncc21  > 100 µM (inactive)
 8  CC(=O)/C(=C\c1ccc(Cl)c(Cl)c1)C(=O)C(C)CN(C)C (stereo unspecified)    1.8 µM (inactive)
 9  Cc1ccccc1-n1c2nc(=O)n(C)c(=O)c-2nc2ccccc21   14.6 µM (inactive)
10          Cc1c2c(n3c(nc4ccccc43)c1C#N)SCC2   > 10 µM (inactive)
11  O=C(N/N=C(COc1cccc(Cl)c1)\N=C\c1ccncc1)c1ccncc1  > 100 µM (inactive)

###

Test system: SK-MEL-2
Assay protocol: NCI tumour cell line growth inhibition, 48 h
Active and inactive are the calls of the source. Cut-off read from the data, not from the text of the source: active = GI50 up to about 1.1 µM and inactive = higher. *1 amine or outer side, *2 acyl side, *3 side chain or, on linkers, in order; H or OH if unused. Where a SMILES comes first, the peptide text is derived from it. [ ]: non-standard residue; d: D form. The star is where a group is joined. ξ: configuration not given here. X43 = CCC(=O)CC(O)CC(C)CC(N[*:1])C(=O)[*:2]; ξLeu(3ξ-OH) = CC(C)C(O)C(N)C(=O)O; ξPro(4ξ-Me) = CC1CNC(C(=O)O)C1; X42 = CCC(C)/C=C/C(=O)*; Aib = CC(C)(N)C(=O)O; X44 = CC(CN(C)C)N*; βAla = NCCC(=O)O
Outcome codes: active, inactive

Compound	Category
Cc1ccc(NC(=O)C(=O)C2NC(=S)NC2=O)c([N+](=O)[O-])c1 (configuration not stated)	inactive
CCC(=O)CC(O)CC(C)CC(NC(=O)C1CC(C)CN1C(=O)/C=C/C(C)CC)C(=O)NC(C(=O)NC(C)(C)C(=O)NC(CC(C)C)C(=O)NC(CC(C)C)C(=O)NC(C)(C)C(=O)NC(C)(C)C(=O)NCCC(=O)NC(C)CN(C)C)C(O)C(C)C (configuration not stated) (X42-[ξPro(4ξ-Me)][X43][ξLeu(3ξ-OH)][Aib]LL[Aib][Aib][βAla]-X44; configuration not given here)	active
Cc1ccc(C(=O)N/N=C2/C(=O)c3c4ccccc4cc4cccc2c34)cc1	inactive
NC1=NS(=O)(=O)Nc2nc(-c3ccc([N+](=O)[O-])cc3)[nH]c21	inactive
CN(CC(N)=O)C(=O)N(CCCl)N=O [SARCNU]	inactive
C=C1C(=O)OC2C1C(OC(=O)/C(C)=C/C)CC(O)(CCl)C1C(OC(C)=O)C=C(C)C21O (configuration not stated)	inactive
CCc1[nH]c(=O)nc(N)c1-c1ccc(N2CCCCC2)c([N+](=O)[O-])c1	inactive
O=C1c2cc3c(cc2CC12Cc1cc4c(cc1C2)CCC4)CCC3	inactive
CC(=O)Nc1ccc(NS(=O)(=O)c2ccc3nc(C)n(NS(=O)(=O)c4ccc(NC(C)=O)cc4)c(=O)c3c2)cc1	inactive
CCCCC1CCCCCCc2[nH]c(/C=C3\N=C(c4ccc[nH]4)C=C3OC)cc21 (configuration not stated)	active
Cc1c(N(C)C)ccc2c(=O)c3cccc(CC(=O)O)c3oc12	inactive
CC(C)CC(=O)NC(Nc1ccc(S(=O)(=O)Nc2ncccn2)cc1)(C(F)(F)F)C(F)(F)F	inactive
Nc1nc(O)c2ncn(C3OC(CO)C(O)C3O)c2n1 (configuration not stated)	inactive
COc1cc(C=O)cc(/C=N/c2ccc(Br)cc2)c1O	inactive
CCCCCCC(=O)OC[n+]1ccc2c(C)c3[nH]c4ccccc4c3c(C)c2c1	inactive
OCc1ccc2c(c1)CC1(Cc3ccc(/C=N/O)cc3C1)C2 (configuration not stated)	inactive
CCN(CC)CCC(=O)Nc1ccc2c(c1)C(=O)c1ccc(NC(=O)CCN(CC)CC)cc1C2=O	inactive
COC(=O)/C=C/c1ccccc1N=[S@](C)(=O)c1ccc(C)cc1	inactive
O=S(=O)(N/C(=N\O)Nc1ccc(Cl)cc1)c1cc2ccccc2o1	inactive
COc1ccc2c(c1)CCCN2CCCCCCCCCCN(CCC(C)C)CCC(C)C	inactive
NS(=O)(=O)c1ccc(NC(=O)c2cccc3c(=O)c4ccccc4[nH]c23)cc1	inactive
COCN1COCN(C)C1=O	inactive

###

Tested on: Malme-3M
Assay protocol: NCI tumour cell line growth inhibition, 48 h
The source made the active and inactive calls. No stated cut-off is given here; in the data, active = GI50 up to about 1.1 µM and inactive = higher.
Outcome codes: yes (1) for active, no (0) for inactive

> print(dat)
                                    compound  target.or.test.system  category
 1              SC1=C2CCCCCC2=NC2(CCCCCC2)S1               Malme-3M    no (0)
 2  CC1(Cl)C(=O)NC(=O)N([C@H]2C[C@H](O)[C@@H](CO)O2)C1N=[N+]=[N-] (stereo partly specified)               Malme-3M    no (0)
 3  COc1c(C2=NC(C(C)C)CO2)ccc2ccccc12 (stereo unspecified)               Malme-3M    no (0)
 4  Cc1ccccc1-n1c2nc(=O)n(C)c(=O)c-2nc2ccccc21               Malme-3M    no (0)
 5  CC(=O)/C(=C\c1ccc(Cl)c(Cl)c1)C(=O)C(C)CN(C)C (stereo unspecified)               Malme-3M    no (0)
 6  O=C(O)c1cc(Sc2ccc([N+](=O)[O-])c(C(=O)O)c2)ccc1[N+](=O)[O-]               Malme-3M   yes (1)
 7  O=C(O/N=C1/CCCC/C1=C\c1ccccc1)c1ccc(Cl)cc1               Malme-3M    no (0)
 8           COC(=O)c1cc(=O)nc2cc3cccccc3n12               Malme-3M    no (0)
 9  Cc1cccc(C)c1NC(=O)CCc1nnc2s/c(=C\c3ccc(N(C)C)cc3)c(=O)n12               Malme-3M    no (0)
10           N#Cc1ccsc1Nc1ccccc1[N+](=O)[O-]               Malme-3M    no (0)
11  O=C(Nc1ccc(F)cc1)c1cc2c(cc1Cl)Sc1nccn1S2(=O)=O               Malme-3M    no (0)

###

Test system: HOP-62
Assay protocol: NCI tumour cell line growth inhibition, 48 h
Calls of active or inactive are those of the source. Cut-off read from the data, not from the text of the source: active = GI50 up to about 1.1 µM and inactive = higher.
Outcome codes: active, inactive

Compound	Category
Cc1ccc(S(=O)(=O)N/N=C\c2c3ccccc3[n+](C)c3ccccc23)cc1	inactive
CCOC(=O)C(=C=C=C(c1ccccc1)c1ccccc1)C(=O)OCC	inactive
Cc1nc(C)c(C(=O)NNC(=O)C[N+](C)(C)C)cc1C(=O)NNC(=O)C[N+](C)(C)C	inactive
O=C(C/C=C/c1ccccc1)c1ccccc1	inactive
Cc1cn([C@H]2[C@@H](CO)C[C@H]2O)c(=O)[nH]c1=O	inactive
O=C(O/C=C\OC1CCCC1(c1ccccc1)c1ccccc1)c1ccccc1 (stereo not drawn)	inactive
CCCCCCC(=O)OC[n+]1ccc2c(C)c3[nH]c4ccccc4c3c(C)c2c1	inactive
COc1ccc(/C(Cl)=C(\C=O)c2ccc(Cl)c(Cl)c2)cc1	inactive
O=c1c2c3c(sc2nc2n1N=C(c1ccc([N+](=O)[O-])cc1)CS2)CCCC3	inactive
CN(C)CCCNC(=O)c1cc(NC(=O)c2cc(NS(=O)(=O)c3ccc4c(c3)C(=O)c3ccccc3C4=O)cn2C)cn1C	inactive
O=C1/C(=C/c2ccccc2)CCc2ccc([N+](=O)[O-])cc21	inactive
CC(=O)O[C@H]1C(=O)[C@]2(C)[C@@H](OC(=O)OCCC(O)CO)C[C@H]3OC[C@@]3(OC(C)=O)[C@H]2[C@H](OC(=O)c2ccccc2)[C@]2(O)C[C@H](OC(=O)[C@H](O)[C@@H](NC(=O)c3ccccc3)c3ccccc3)C(C)=C1C2(C)C (stereo partly drawn)	active
C[C@]12CCC3c4ccc(O)cc4CC[C@H]3C1CC(=O)N(CCN1CCCC1)C2=O (stereo partly drawn)	inactive
COC(=O)c1cnc(Cl)cn1	inactive
CNC(=O)CCC(NC(=O)OC(C)(C)C)C(=O)NC(Cc1ccc(NC(=O)CCCCC(C)=O)cc1)C(=O)NCC(=O)NC (stereo not drawn)	inactive
COC(=O)/C(=N\Nc1nc(S)nn1N)C(C#N)c1ccc(Cl)cc1 (stereo not drawn)	inactive
Cc1nc2ccc(S(=O)(=O)NS(=O)(=O)c3ccc(-c4ccccc4)cc3)cc2c(=O)n1NS(=O)(=O)c1ccc(-c2ccccc2)cc1	inactive
Cc1cc(O)c2c(c1)C(=O)c1c(c(O)cc(O)c1-c1c(O)cc(O)c3c1C(=O)c1cc(C)cc(O)c1C3=O)C2=O	inactive
